Assay: Induction of hemolysis in human RBC assessed as hemoglobin release after 1 hr by microtiter plate reader analysis
Assay type: cell-based, Erythrocyte
Conditions: red blood cells
Where a SMILES comes first, the peptide text is derived from it. [ ]: non-standard residue; d: D form. 3Abz = Nc1cccc(C(=O)O)c1; Orn = NCCC[CH](N)C(=O)O
Catalogue of HC50 at 1 h values
measured_quantity: HC50 at 1 h (µg/mL)

>>> numeric_value("N=C(N)NCCCC(NC(=O)C(CCCNC(=N)N)NC(=O)c1cccc(NC(=O)C(CCCNC(=N)N)NC(=O)C(Cc2c[nH]c3ccccc23)NC(=O)C(N)Cc2c[nH]c3ccccc23)c1)C(N)=O (centres undefined) (H-WWR[3Abz]RR-NH2; configuration not given here)")
380
>>> numeric_value("N=C(N)NCCCC(NC(=O)C(Cc1c[nH]c2ccccc12)NC(=O)c1cccc(NC(=O)C(CCCNC(=N)N)NC(=O)C(N)Cc2c[nH]c3ccccc23)c1)C(N)=O (centres undefined) (H-WR[3Abz]WR-NH2; configuration not given here)")
400
>>> numeric_value("NCCCC(N)C(=O)NC(CCCN)C(=O)NC(Cc1c[nH]c2ccccc12)C(=O)Nc1cccc(C(=O)NC(Cc2c[nH]c3ccccc23)C(=O)NC(CCCN)C(N)=O)c1 (centres undefined) (H-[Orn][Orn]W[3Abz]W[Orn]-NH2; configuration not given here)")
450

====

The following compounds are shown together with reported Retention_time values.
Assay: Retention time of the compound by HPLC analysis
Format: physicochemical
Where a SMILES comes first, the peptide text is derived from it. [ ]: non-standard residue; d: D form. 3Abz = Nc1cccc(C(=O)O)c1; Orn = NCCC[CH](N)C(=O)O
measured_quantity: Retention_time (min)

>>> numeric_value("N=C(N)NCCCC(N)C(=O)NC(Cc1c[nH]c2ccccc12)C(=O)Nc1cccc(C(=O)NC(CCCNC(=N)N)C(N)=O)c1 (centres undefined) (H-RW[3Abz]R-NH2; configuration not given here)")
23.821
>>> numeric_value("N=C(N)NCCCC(N)C(=O)NC(CCCNC(=N)N)C(=O)NC(Cc1c[nH]c2ccccc12)C(=O)Nc1cccc(C(=O)NC(Cc2c[nH]c3ccccc23)C(=O)NC(CCCNC(=N)N)C(N)=O)c1 (centres undefined) (H-RRW[3Abz]WR-NH2; configuration not given here)")
27.402
>>> numeric_value("N=C(N)NCCCC(NC(=O)C(CCCNC(=N)N)NC(=O)c1cccc(NC(=O)C(Cc2c[nH]c3ccccc23)NC(=O)C(N)Cc2c[nH]c3ccccc23)c1)C(N)=O (centres undefined) (H-WW[3Abz]RR-NH2; configuration not given here)")
25.377
>>> numeric_value("N=C(N)NCCCC(NC(=O)C(Cc1c[nH]c2ccccc12)NC(=O)c1cccc(NC(=O)C(CCCNC(=N)N)NC(=O)C(N)Cc2c[nH]c3ccccc23)c1)C(N)=O (centres undefined) (H-WR[3Abz]WR-NH2; configuration not given here)")
24.982
>>> numeric_value("N=C(N)NCCCC(NC(=O)c1cccc(NC(=O)C(Cc2c[nH]c3ccccc23)NC(=O)C(N)Cc2c[nH]c3ccccc23)c1)C(N)=O (centres undefined) (H-WW[3Abz]R-NH2; configuration not given here)")
28.661
>>> numeric_value("NCCCC(N)C(=O)NC(CCCN)C(=O)NC(Cc1ccccc1)C(=O)Nc1cccc(C(=O)NC(Cc2ccccc2)C(=O)NC(CCCN)C(N)=O)c1 (centres undefined) (H-[Orn][Orn]F[3Abz]F[Orn]-NH2; configuration not given here)")
23.313
>>> numeric_value("N=C(N)NCCCC(N)C(=O)NC(Cc1c[nH]c2ccccc12)C(=O)Nc1cccc(C(=O)NC(CCCNC(=N)N)C(=O)NC(CCCNC(=N)N)C(N)=O)c1 (centres undefined) (H-RW[3Abz]RR-NH2; configuration not given here)")
22.534
>>> numeric_value("N=C(N)NCCCC(N)C(=O)NC(CCCNC(=N)N)C(=O)NC(Cc1c[nH]c2ccccc12)C(=O)NC(Cc1c[nH]c2ccccc12)C(=O)NC(CCCNC(=N)N)C(N)=O (centres undefined) (H-RRWWR-NH2; configuration not given here)")
29.606
>>> numeric_value("N=C(N)NCCCC(N)C(=O)NC(Cc1c[nH]c2ccccc12)C(=O)NC(Cc1c[nH]c2ccccc12)C(=O)Nc1cccc(C(=O)NC(CCCNC(=N)N)C(=O)NC(CCCNC(=N)N)C(N)=O)c1 (centres undefined) (H-RWW[3Abz]RR-NH2; configuration not given here)")
26.96

Reference source: ChEMBL document CHEMBL3286351
